Please find below IC50 measurements for Serine/threonine-protein kinase B-raf (Homo sapiens), combined from several publications.

Known IC50 results, listed for orientation:
CC(F)(F)c1cc(F)cc(NC(=O)Nc2ccc(Oc3ccnc(NC(=O)C4CC4)c3)cc2F)c1
0.0089 µM
N#Cc1ccnc2[nH]cc(C(=O)c3c(F)ccc(NS(=O)(=O)c4ccccn4)c3F)c12
≤ 10 µM
N#Cc1cnc2[nH]cc(C(=O)c3c(F)ccc(NS(=O)(=O)c4ccccc4F)c3F)c2c1
≤ 10 µM
N#Cc1cnc2[nH]cc(C(=O)c3c(F)ccc(NS(=O)(=O)c4cccnc4)c3F)c2c1
< 0.01 µM
Cn1cc(-c2cnc3[nH]cc(C(=O)c4cc(NS(=O)(=O)c5ccc(C(F)(F)F)cc5)ccc4F)c3c2)cn1
≤ 10 µM

Under Serine/threonine-protein kinase B-raf (Homo sapiens): report IC50 of CCCCS(=O)(=O)Nc1ccc(F)c(C(=O)c2c[nH]c3ncc(-c4cnn(C)c4)cc23)c1 .
≤ 10 µM

Under Serine/threonine-protein kinase B-raf (Homo sapiens): report IC50 of N#Cc1cnc2[nH]cc(C(=O)c3cccc(NS(=O)(=O)CC(F)(F)F)c3F)c2c1 .
≤ 10 µM

###

Please find below IC50 measurements for Serine/threonine-protein kinase B-raf (Homo sapiens), combined from several publications.

Cc1cnc2[nH]cc(C(=O)c3c(F)ccc(NS(=O)(=O)CCC(F)(F)F)c3F)c2c1
≤ 10 µM
COc1cc(Cc2c[nH]c3ncccc23)cc(Cl)c1OCc1ccc(Cl)cc1
≤ 10 µM
COCCOc1cnc2[nH]cc(C(=O)c3c(F)ccc(NS(=O)(=O)c4ccc(C(C)C)cc4)c3F)c2c1
≤ 10 µM
CCCS(=O)(=O)Nc1ccc(F)c(C(=O)c2c[nH]c3ncc(-c4ccc(OCCCN5CCOCC5)nc4)cc23)c1F
≤ 10 µM
CCCS(=O)(=O)Nc1ccc(F)c(C(=O)c2c[nH]c3ncc(-c4ccnc(F)c4)cc23)c1F
< 0.01 µM

Hello, please tell me recorded IC50 for this one: COc1ncc(-c2cnc3[nH]cc(C(=O)c4c(F)ccc(NS(=O)(=O)c5cc(F)ccc5F)c4F)c3c2)cn1
≤ 10 µM

Hello, please tell me recorded IC50 for this one: O=C(c1c(F)ccc(NS(=O)(=O)C(F)(F)F)c1F)c1c[nH]c2ncc(Cl)cc12
≤ 10 µM

Hello, please tell me recorded IC50 for this one: Cc1cnc2[nH]cc(C(=O)c3c(F)ccc(NS(=O)(=O)c4c(F)cccc4F)c3F)c2c1
≤ 10 µM

###

Please find below IC50 measurements for Serine/threonine-protein kinase B-raf (Homo sapiens, UniProt P15056), combined from several publications.

Known IC50 results, listed for orientation:
CCCS(=O)(=O)Nc1ccc(F)c(C(=O)c2c[nH]c3ncc(O)cc23)c1F
≤ 10 µM
N#Cc1cnc2[nH]cc(C(=O)c3c(F)ccc(NS(=O)(=O)c4ccc(F)cc4)c3F)c2c1
≤ 10 µM
CCCc1ccc(S(=O)(=O)Nc2ccc(F)c(C(=O)c3c[nH]c4ncc(-c5ncc(C)n5C)cc34)c2F)cc1
≤ 10 µM
CC(F)(F)c1cc(NC(=O)Nc2ccc(Oc3cc(NC(=O)C4CC4)ncn3)c(F)c2)ccc1Cl
0.153 µM
O=C(O)CCc1cccc(-c2cnc3[nH]cc(C(=O)c4cccc(NS(=O)(=O)C5CCCCC5)c4)c3c2)c1
≤ 10 µM
CCCc1ccc(S(=O)(=O)Nc2ccc(F)c(C(=O)c3c[nH]c4ncc(-c5cnn(C)c5)cc34)c2F)cc1
≤ 10 µM

Under Serine/threonine-protein kinase B-raf (Homo sapiens, UniProt P15056): report IC50 of CCCS(=O)(=O)Nc1ccc(F)c(C(=O)c2c[nH]c3ncc(-c4cnc(N(C)C)nc4)cc23)c1F .
< 0.01 µM

Under Serine/threonine-protein kinase B-raf (Homo sapiens, UniProt P15056): report IC50 of CCCS(=O)(=O)Nc1ccc(F)c(C(=O)c2c[nH]c3ncc(-c4ccc(N)nc4)cc23)c1F .
< 0.01 µM

Under Serine/threonine-protein kinase B-raf (Homo sapiens, UniProt P15056): report IC50 of COc1ncc(-c2cnc3[nH]cc(C(=O)c4cccc(NS(=O)(=O)N5CCCC5)c4F)c3c2)cn1 .
≤ 10 µM

Under Serine/threonine-protein kinase B-raf (Homo sapiens, UniProt P15056): report IC50 of COc1cnc2[nH]cc(C(=O)c3c(F)ccc(NS(=O)(=O)C4CCCCC4)c3F)c2c1 .
≤ 10 µM

Under Serine/threonine-protein kinase B-raf (Homo sapiens, UniProt P15056): report IC50 of CCCS(=O)(=O)Nc1ccc(F)c(C(=O)c2c[nH]c3ncc(-c4c(-c5ccccc5)noc4C)cc23)c1F .
≤ 10 µM

Under Serine/threonine-protein kinase B-raf (Homo sapiens, UniProt P15056): report IC50 of Cc1cnc2[nH]cc(C(=O)c3c(F)ccc(NS(=O)(=O)N4CCCC4)c3F)c2c1 .
≤ 10 µM

Under Serine/threonine-protein kinase B-raf (Homo sapiens, UniProt P15056): report IC50 of N#Cc1cnc2[nH]cc(C(=O)c3cccc(NS(=O)(=O)CCC(F)(F)F)c3F)c2c1 .
≤ 10 µM
